Target under test: human high molecular weight urokinase (Homo sapiens, UniProt P00749)
Construct: human high molecular weight urokinase; purchased American Diagnostica, Greenwich, Conn
Test description: Urokinase Direct Assay
Assay type: biochemical
Reported conditions: read-out: uPA Direct: percentage of residual urokinase activity relative to inhibitor-free controls; heading: uPA Direct: percentage of residual urokinase activity relative to inhibitor-free controls; inhibitor concentration of 1 mM
Structures can show the parent of a compound that is named as a salt.
Property measured: residual urokinase activity at 1000 µM (%)

molecule="N=C(N)c1cc2c(Cl)cccc2s1 [Compound 3, hydrochloride]" limit_qualifier== test_value=3
molecule="N=C(N)c1cc2cc(CO)ccc2s1 [Compound 131, hydrochloride]" limit_qualifier== test_value=6.3
molecule="N=C(N)c1cc2c(C3CCCO3)cccc2s1 (racemic) [Compound 61, hydrochloride]" limit_qualifier== test_value=0.6
molecule="N=C(N)c1cc2c(-c3ccc([N+](=O)[O-])cc3)cccc2s1 [Compound 46, hydrochloride]" limit_qualifier== test_value=1
molecule="CCC=Cc1ccc2sc(C(=N)N)cc2c1 [Compound 117, hydrochloride]" limit_qualifier== test_value=1.1
molecule="N=C(N)c1cc2cccc(I)c2s1 [Compound 302, hydrochloride]" limit_qualifier== test_value=10.8
molecule="C=CCSc1cccc2sc(C(=N)N)cc12 [Compound 59, hydrochloride]" limit_qualifier== test_value=1.1
molecule="N=C(N)c1sc2ccccc2c1O [Compound 305, hydrochloride]" limit_qualifier=> test_value=90
molecule="Cl.N=C(N)c1cc2ccsc2s1 [Compound 321, hydrochloride]" limit_qualifier== test_value=4.1
